The measurements presented in this section are drawn from patent US20250304643A1.

- assayed_target: T1, human GLP-2R (glucagon-like peptide-2 receptor) (human, UniProt O95838 1-553)
- T1 sequence (looked up): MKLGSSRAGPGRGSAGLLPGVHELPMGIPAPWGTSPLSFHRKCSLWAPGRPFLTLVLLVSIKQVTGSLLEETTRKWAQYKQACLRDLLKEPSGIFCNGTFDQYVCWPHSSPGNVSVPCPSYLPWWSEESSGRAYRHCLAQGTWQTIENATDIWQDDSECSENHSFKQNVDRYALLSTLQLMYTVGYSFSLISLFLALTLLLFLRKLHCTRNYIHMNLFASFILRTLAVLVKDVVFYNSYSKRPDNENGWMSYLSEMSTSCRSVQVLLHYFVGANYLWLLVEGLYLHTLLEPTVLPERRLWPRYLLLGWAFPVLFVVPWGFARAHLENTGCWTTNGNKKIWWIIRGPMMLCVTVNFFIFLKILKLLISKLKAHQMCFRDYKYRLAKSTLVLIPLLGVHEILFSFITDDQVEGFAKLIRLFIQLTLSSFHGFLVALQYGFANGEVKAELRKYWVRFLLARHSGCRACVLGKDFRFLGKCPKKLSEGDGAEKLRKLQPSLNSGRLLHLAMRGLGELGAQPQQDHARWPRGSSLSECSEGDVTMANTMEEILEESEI
- assay_notes: cell-based or functional assay
Where no end group is shown, it is not given here. The star is where a group is joined. Palmitoyl = CCCCCCCCCCCCCCCC(=O)*
Reported cAMP assay: logEC50 GLP-2R is given for each of the following binders.
experimental_readout: cAMP assay: logEC50 GLP-2R

binder: Palmitoyl-HADGTFISDYSTILDNLAARDFINWLIQTKITKAEWKHAITQ [Compound no. 49]
number: 7.5
//
binder: Palmitoyl-HADGTFISDYSTILDNLAARDFINWLIETKITKNDWKHNITQ [Compound no. 51]
number: 7.9
//
binder: Palmitoyl-HADGTFISDYSTILDNLAARDFIEWLIQTKITKNDWKHNITQ [Compound no. 50]
number: 8
